Source of measurements: ChEMBL document CHEMBL1135234

target: Cytochrome P450 3A4 (Homo sapiens); assay: Inhibition of cytochrome P450 3A4 enzyme; Range 1-2 uM; format: ADME
pIC50 values by entry
Entry type: numeric. Quantity: pIC50, the -log10 of concentration in molar units.

For orientation, consider the following solved cases.
>  <Smiles representation>
Cc1cc(C)cc(-c2[nH]c3ccc(C(C)(C)C(=O)N4C5CCC4CC5)cc3c2[C@H](C)CNCCc2cccc3cnccc23)c1

>  <Recorded value>
6.00

$$$$
>  <Smiles representation>
Cc1cc(C)cc(-c2[nH]c3ccc(C(C)(C)C(=O)N4CC5CCC4CC5)cc3c2[C@H](C)CNCCc2ccc3nsnc3c2)c1

>  <Recorded value>
6.00

$$$$

Please state recorded pIC50 (tested on Cytochrome P450 3A4 (Homo sapiens)) of `Cc1cc(C)cc(-c2[nH]c3ccc(C(C)(C)C(=O)N4C5CCC4CC5)cc3c2[C@H](C)CNCCc2ccc3ncoc3c2)c1`
6.00

====

target: UniProtKB P30968; test: Inhibition of gonadotropin-releasing hormone receptor-stimulated [3H]inositol phosphate hydrolysis; format: functional
Quick reference for log10 IC50 among some compounds
Please interpret these as log10 of IC50 where IC50 is in nM.

>  <Smiles representation>
Cc1cc(C)cc(-c2[nH]c3ccc(C(C)(C)C(=O)N4CC5CCC4CC5)cc3c2[C@H](C)CNCCc2ccc3[nH]c(=O)[nH]c3c2F)c1

>  <Readout kind>
log10 IC50

>  <Recorded value>
1.45

$$$$
>  <Smiles representation>
Cc1cc(C)cc(-c2[nH]c3ccc(C(C)(C)C(=O)N4CC5CCC4CC5)cc3c2[C@H](C)CNCCc2ccc3nc(C(=O)O)[nH]c3c2)c1

>  <Readout kind>
log10 IC50

>  <Recorded value>
0.81

$$$$
>  <Smiles representation>
Cc1cc(C)cc(-c2[nH]c3ccc(C(C)(C)C(=O)N4CC5CCC4CC5)cc3c2[C@H](C)CNCCc2ccc3nc[nH]c3c2)c1

>  <Readout kind>
log10 IC50

>  <Recorded value>
0.65

$$$$

Would you mind telling me what log10 IC50 value was observed for `Cc1cc(C)cc(-c2[nH]c3ccc(C(C)(C)C(=O)N4CC5CCC4CC5)cc3c2[C@H](C)CNCCc2ccc3ncoc3c2)c1` ?
0.59

How about this compound: `Cc1cc(C)cc(-c2[nH]c3ccc(C(C)(C)C(=O)N4C5CCC4CC5)cc3c2[C@H](C)CNCCc2ccc3nc[nH]c3c2)c1`
0.41

Cool, now `Cc1cc(C)cc(-c2[nH]c3ccc(C(C)(C)C(=O)N4C5CCC4CC5)cc3c2[C@H](C)CNCCc2c[nH]c3ncnc-3c2)c1`
0.40

Another: `Cc1cc(C)cc(-c2[nH]c3ccc(C(C)(C)C(=O)N4C5CCC4CC5)cc3c2[C@H](C)CNCCCc2cccc3cnccc23)c1`
0.70

====

target: Gonadotropin-releasing hormone receptor (Homo sapiens, UniProt P30968); test: Inhibition of [125I]buserelin binding to human pituitary gonadotropin-releasing hormone receptor
Readout kind: IC50 (nM)
Dear colleague, please return just the value in nM, with no unit written.

Recorded IC50, per entry:
>  <Smiles representation>
Cc1cc(C)cc(-c2[nH]c3ccc(C(C)(C)C(=O)N4C5CCC4CC5)cc3c2[C@H](C)CNCCCCc2cncc3ccccc23)c1

>  <Unit symbol>
nM

>  <IC50>
2.1

$$$$
>  <Smiles representation>
Cc1cc(C)cc(-c2[nH]c3ccc(C(C)(C)C(=O)N4CC5CCC4CC5)cc3c2[C@H](C)CNCCc2ccc3ncoc3c2)c1

>  <Unit symbol>
nM

>  <IC50>
0.6

$$$$

Continue with the next compound.
For the compound `Cc1cc(C)cc(-c2[nH]c3ccc(C(C)(C)C(=O)N4CC5CCC4CC5)cc3c2[C@H](C)CNCCc2c[nH]c3ncnc-3c2)c1` , what IC50 is on record?
0.3

====

biological target: Cytochrome P450 3A4 (Homo sapiens, UniProt P08684); assay: Inhibition of cytochrome P450 3A4 enzyme
Sequence (P08684 whole entry): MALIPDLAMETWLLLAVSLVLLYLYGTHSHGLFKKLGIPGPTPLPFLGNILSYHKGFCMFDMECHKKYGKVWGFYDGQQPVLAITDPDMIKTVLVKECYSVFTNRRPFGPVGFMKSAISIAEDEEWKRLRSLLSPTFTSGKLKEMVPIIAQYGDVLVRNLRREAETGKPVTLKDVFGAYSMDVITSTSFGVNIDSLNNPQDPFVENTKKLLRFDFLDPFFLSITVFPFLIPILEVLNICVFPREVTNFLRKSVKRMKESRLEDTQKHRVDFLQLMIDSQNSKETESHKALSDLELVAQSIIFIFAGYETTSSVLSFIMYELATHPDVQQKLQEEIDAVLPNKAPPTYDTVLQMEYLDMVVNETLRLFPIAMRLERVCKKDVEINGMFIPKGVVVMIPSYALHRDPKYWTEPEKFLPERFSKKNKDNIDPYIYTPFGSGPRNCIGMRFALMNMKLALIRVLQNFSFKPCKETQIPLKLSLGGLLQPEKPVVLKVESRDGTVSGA
The entries below are paired with their reported pIC50.
# pIC50: negative log10 of molar concentration; output just the value

Examples with answers:
>  <Smiles representation>
Cc1cc(C)cc(-c2[nH]c3ccc(C(C)(C)C(=O)N4CC5CCC4CC5)cc3c2[C@H](C)CNCCc2c[nH]c3ncnc-3c2)c1

>  <pIC50>
5.40

$$$$
>  <Smiles representation>
Cc1cc(C)cc(-c2[nH]c3ccc(C(C)(C)C(=O)N4C5CCC4CC5)cc3c2[C@H](C)CNCCc2ccc3[nH]c(C)nc3c2)c1

>  <pIC50>
5.30

$$$$

Continue with the next molecule.
Sample `Cc1cc(C)cc(-c2[nH]c3ccc(C(C)(C)C(=O)N4CC5CCC4CC5)cc3c2[C@H](C)CNCCc2ccc3nc[nH]c3c2)c1` — what was its pIC50?
7.00

====

Target: UniProtKB P30968
Sequence (P30968 whole entry): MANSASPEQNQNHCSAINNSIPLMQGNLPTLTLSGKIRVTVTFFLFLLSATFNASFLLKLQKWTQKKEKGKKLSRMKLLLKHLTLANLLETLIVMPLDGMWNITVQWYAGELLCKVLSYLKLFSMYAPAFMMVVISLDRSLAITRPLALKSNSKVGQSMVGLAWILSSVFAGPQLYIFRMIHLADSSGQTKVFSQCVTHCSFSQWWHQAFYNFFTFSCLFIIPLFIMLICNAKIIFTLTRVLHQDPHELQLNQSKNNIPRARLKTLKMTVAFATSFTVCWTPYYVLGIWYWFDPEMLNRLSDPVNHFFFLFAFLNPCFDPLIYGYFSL
Experiment: Compound was evaluated for the inhibition of Gonadotropin-releasing hormone receptor-stimulated [3H]inositol phosphate hydrolysis using functional assay
Readout kind: IC50 (nM)
Report the figure in nM without appending any unit label.

Quick check: IC50 on UniProtKB P30968, item `Cc1cc(C)cc(-c2[nH]c3ccc(C(C)(C)C(=O)N4CC5CCC4CC5)cc3c2[C@H](C)CNCCc2ccc3[nH]c(=O)[nH]c3c2)c1` ?
2

====

half-life: recorded values
test: Half life in dog was determined; type: ADME, organism-based, Canis lupus familiaris; conditions: in vivo
Please give a number only; it is taken to be in h.

>  <Smiles representation>
Cc1cc(C)cc(-c2[nH]c3ccc(C(C)(C)C(=O)N4C5CCC4CC5)cc3c2[C@H](C)CNCCCCc2ccncc2)c1

>  <half-life, h>
9.5

$$$$

# input molecule: `Cc1cc(C)cc(-c2[nH]c3ccc(C(C)(C)C(=O)N4CC5CCC4CC5)cc3c2[C@H](C)CNCCc2ccc3nn[nH]c3c2)c1` ; wanted: its half-life
7.2

One more molecule: `Cc1cc(C)cc(-c2[nH]c3ccc(C(C)(C)C(=O)N4C5CCC4CC5)cc3c2[C@H](C)CNCCc2cccc3cnccc23)c1`
1.9

Again, but for `Cc1cc(C)cc(-c2[nH]c3ccc(C(C)(C)C(=O)N4C5CCC4CC5)cc3c2[C@H](C)CNCCc2ccc3[nH]nnc3c2)c1`
2.7

Same again, this time with `Cc1cc(C)cc(-c2[nH]c3ccc(C(C)(C)C(=O)N4C5CCC4CC5)cc3c2[C@H](C)CNCCCCc2cccc3cnccc23)c1`
1

====

target: Gonadotropin-releasing hormone receptor (Homo sapiens, UniProt P30968); assay: Inhibition of gonadotropin-releasing hormone receptor-stimulated [3H]inositol phosphate hydrolysis; type: functional
Recorded IC50 values for a group of compounds are listed next.
Give the number; nM is assumed, so skip it.

>  <Smiles representation>
Cc1cc(C)cc(-c2[nH]c3ccc(C(C)(C)C(=O)N4C5CCC4CC5)cc3c2[C@H](C)CNCCc2ccc3[nH]c(C)nc3c2)c1

>  <Unit symbol>
nM

>  <IC50>
13

$$$$
>  <Smiles representation>
Cc1cc(C)cc(-c2[nH]c3ccc(C(C)(C)C(=O)N4CC5CCC4CC5)cc3c2[C@H](C)CNCc2ccc3nc[nH]c3c2)c1

>  <Unit symbol>
nM

>  <IC50>
43.9

$$$$

Note: attention shifts to another entry.
Value lookup for IC50; key = `Cc1cc(C)cc(-c2[nH]c3ccc(C(C)(C)C(=O)N4C5CCC4CC5)cc3c2[C@H](C)CNCCCCc2cncc3ccccc23)c1`
10.2

====

molecular target: Gonadotropin-releasing hormone receptor (Homo sapiens, UniProt P30968); test: Inhibition of gonadotropin-releasing hormone receptor-stimulated [3H]inositol phosphate hydrolysis; format: functional
Readout kind: pIC50
To interpret pIC50, take it as minus log10 of a concentration measured in moles per litre.

>  <Compound>
Cc1cc(C)cc(-c2[nH]c3ccc(C(C)(C)C(=O)N4C5CCC4CC5)cc3c2[C@H](C)CNCCCc2ccnc3nc(C)ccc23)c1

>  <pIC50>
7.79

$$$$
>  <Compound>
Cc1cc(C)cc(-c2[nH]c3ccc(C(C)(C)C(=O)N4C5CCC4CC5)cc3c2[C@H](C)CNCCc2ccc3ocnc3c2)c1

>  <pIC50>
8.05

$$$$
>  <Compound>
Cc1cc(C)cc(-c2[nH]c3ccc(C(C)(C)C(=O)N4C5CCC4CC5)cc3c2[C@H](C)CNCCc2ccc3[nH]nnc3c2)c1

>  <pIC50>
8.70

$$$$

Item `Cc1cc(C)cc(-c2[nH]c3ccc(C(C)(C)C(=O)N4C5CCC4CC5)cc3c2[C@H](C)CNCCCCc2ccc3ncccc3c2)c1` has what recorded pIC50?
7.94

Next compound up: `Cc1cc(C)cc(-c2[nH]c3ccc(C(C)(C)C(=O)N4C5CCC4CC5)cc3c2[C@H](C)CNCCCCc2cccc3ncccc23)c1`
7.33

Next up: Cc1cc(C)cc(-c2[nH]c3ccc(C(C)(C)C(=O)N4C5CCC4CC5)cc3c2[C@H](C)CNCc2cccc3ncccc23)c1 (stereo in doubt; 27a)
6.38

Continue with `Cc1cc(C)cc(-c2[nH]c3ccc(C(C)(C)C(=O)N4CC5CCC4CC5)cc3c2[C@H](C)CNCCc2ccc3nsnc3c2)c1`
7.94

Same lookup for `COC(=O)c1nc2ccc(CCNC[C@@H](C)c3c(-c4cc(C)cc(C)c4)[nH]c4ccc(C(C)(C)C(=O)N5CC6CCC5CC6)cc34)cc2[nH]1` , please.
8.12

Thanks! And Cc1cc(C)cc(-c2[nH]c3ccc(C(C)(C)C(=O)N4C5CCC4CC5)cc3c2[C@H](C)CNCc2cccc3ncccc23)c1 (stereo in doubt; 27b) ?
6.50

Then this compound: `Cc1cc(C)cc(-c2[nH]c3ccc(C(C)(C)C(=O)N4CC5CCC4CC5)cc3c2[C@H](C)CNCCc2ccc3nn[nH]c3c2)c1`
8.60

Entry `Cc1cc(C)cc(-c2[nH]c3ccc(C(C)(C)C(=O)N4C5CCC4CC5)cc3c2[C@H](C)CNCCCCc2cccc3cnccc23)c1` please
8.17

Now the compound `Cc1cc(C)cc(-c2[nH]c3ccc(C(C)(C)C(=O)N4CC5CCC4CC5)cc3c2[C@H](C)CNCCc2cnc3nn[nH]c3c2)c1`
8.55
